Biological target: T1, gastrin-releasing peptide receptor (GRPR) (human, UniProt P30550 1-384)
T1 construct: whole, on cells; also called GRP receptor
T1 sequence (P30550 whole entry): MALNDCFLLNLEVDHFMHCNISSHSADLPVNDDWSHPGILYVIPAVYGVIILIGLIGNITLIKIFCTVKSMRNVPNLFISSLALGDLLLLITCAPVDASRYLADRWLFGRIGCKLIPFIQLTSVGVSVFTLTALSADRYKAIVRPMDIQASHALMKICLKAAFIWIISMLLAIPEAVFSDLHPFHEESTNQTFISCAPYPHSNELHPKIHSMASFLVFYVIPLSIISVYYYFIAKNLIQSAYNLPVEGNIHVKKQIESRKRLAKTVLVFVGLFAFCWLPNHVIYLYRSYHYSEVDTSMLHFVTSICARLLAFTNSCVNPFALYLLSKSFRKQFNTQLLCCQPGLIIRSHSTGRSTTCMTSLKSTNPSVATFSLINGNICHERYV
Assay: competitive binding with 125I-[Tyr4]BBN on PC-3 cells
Test Readout: pIC50
Formally, pIC50 is defined as -log10 of the concentration c, with c in mol/L.

Which pIC50 value belongs to DOTA-RGD-BBN (VIII) (not fully specified; DOTA (from DOTA-OSSu) on the amine of RGD-bombesin; Aca between Glu and Gln; C-terminal amide (Met-NH2); cyclic (cyclo); D-Tyr at position 4; Lys side chain joined to the Glu linker, also called DOTA-RGD-bombesin; ^64Cu-DOTA-RGD-BBN) peptide 1: RGDYK peptide 2: EQWAVGHLM ? 7.07
